System: tobacco budworm (Heliothis virescens [Fabricius])
Protocol notes: surface-treated diet test, insecticidal activity against tobacco budworm
Format: in vivo
Assay conditions: 0.25 millimoles of candidate insecticide on the surface of the diet; second instar larvae; five-day exposure; compared to total number of insects infested
Description: Candidate insecticides were evaluated for activity against the tobacco budworm (Heliothis virescens [Fabricius]) in a surface-treated diet test. […] After the five-day exposure period insecticidal activity for each rate of application of candidate insecticide was assessed as percent inhibition of insect weight relative to the weight of insects from untreated controls, and percent mortality when compared to the total number of insects infested. […]
Quick reference for Percent Mortality among some compounds
Write the number in % without appending the unit.

Guide cases for Percent Mortality, answers given:
Compound	Percent Mortality / %
CC(C)=CCCC(C)=CCON=Cc1ccc(CN2CCC(O)(C(c3ccc(OC(F)(F)F)cc3)c3ccc(OC(F)(F)F)cc3)CC2)cc1 [Compound 305]	0
[O-][N+]1(Cc2ccc(Oc3ncccc3Cl)cc2)CCC(O)(C(c2ccc(OC(F)(F)F)cc2)c2ccc(OC(F)(F)F)cc2)CC1 (stereo not shown) [Compound 399]	100
[O-][N+]1(Cc2ccc(Oc3ccccn3)cc2)CCC(O)(C(c2ccc(OC(F)F)cc2)c2ccc(OC(F)(F)F)cc2)CC1 (stereo not shown) [Compound 347]	100
OC1(C(c2ccc(C(F)(F)F)cc2)c2ccccc2Cl)CCN(Cc2ccc(Oc3ncccn3)cc2)CC1 (stereo not shown) [Compound 18]	100
[O-][N+]1(Cc2ccc(Oc3ccc(Cl)nn3)cc2)CCC(O)(C(c2ccc(OC(F)(F)F)cc2)c2ccc(OC(F)(F)F)cc2)CC1 (stereo not shown) [Compound 412]	100
[O-][N+]1(Cc2ccc(Oc3ncccn3)cc2)CCC(O)(C(O)(c2ccc(OC(F)(F)F)cc2)c2ccc(OC(F)(F)F)cc2)CC1 (stereo not shown) [Compound 422]	100

Ask: Fetch value of Percent Mortality on tobacco budworm (Heliothis virescens [Fabricius]) for N#Cc1ccc(Oc2ccc(CN3CCC(O)(C(c4ccc(OC(F)(F)F)cc4)c4ccc(OC(F)(F)F)cc4)CC3)cc2)nc1 [Compound 283] .
Result: 100

Ask: Fetch value of Percent Mortality on tobacco budworm (Heliothis virescens [Fabricius]) for CC(O)c1ccc(C(c2ccc(OC(F)(F)F)cc2)C2(O)CCN(Cc3ccc(Oc4ccccn4)cc3)CC2)cc1 (mixture of isomers) [Compound 287] .
Result: 100

Ask: Fetch value of Percent Mortality on tobacco budworm (Heliothis virescens [Fabricius]) for OC(c1ccc(Cl)cc1)c1ccc(CN2CCC(O)(C(c3ccc(OC(F)(F)F)cc3)c3ccc(OC(F)(F)F)cc3)CC2)cc1 (racemic) [Compound 278] .
Result: 100

Ask: Fetch value of Percent Mortality on tobacco budworm (Heliothis virescens [Fabricius]) for COCCON=Cc1ccc(C[N+]2([O-])CCC(O)(C(c3ccc(OC(F)(F)F)cc3)c3ccc(OC(F)(F)F)cc3)CC2)cc1 (stereo not shown) [Compound 344] .
Result: 100

Ask: Fetch value of Percent Mortality on tobacco budworm (Heliothis virescens [Fabricius]) for O=C(O)CC(O)(CC(=O)O)C(=O)[O-].OC1(C(c2ccc(OC(F)(F)F)cc2)c2ccc(OC(F)(F)F)cc2)CC[N+](O)(Cc2ccc(Oc3ccccn3)cc2)CC1 (stereo not shown) [Compound 504] .
Result: 100

Ask: Fetch value of Percent Mortality on tobacco budworm (Heliothis virescens [Fabricius]) for OC1(C(c2ccc(C(F)(F)F)cc2)c2ccc(C(F)(F)F)cc2)CCN(Cc2ccc(C3OCCO3)cc2)CC1 [Compound 264] .
Result: 33

Ask: Fetch value of Percent Mortality on tobacco budworm (Heliothis virescens [Fabricius]) for O=Cc1ccc(C(c2ccc(OC(F)(F)F)cc2)C2(O)CCN(Cc3ccc(Oc4ccccn4)cc3)CC2)cc1 (stereo not shown) [Compound 256] .
Result: 17

====

Tested on: tobacco budworm (Heliothis virescens [Fabricius])
Protocol notes: surface-treated diet test, insecticidal activity against tobacco budworm
Type: in vivo
Assay conditions: 0.25 millimoles of candidate insecticide on the surface of the diet; second instar larvae; five-day exposure; compared to total number of insects infested
Procedure: Candidate insecticides were evaluated for activity against the tobacco budworm (Heliothis virescens [Fabricius]) in a surface-treated diet test. […] After the five-day exposure period insecticidal activity for each rate of application of candidate insecticide was assessed as percent inhibition of insect weight relative to the weight of insects from untreated controls, and percent mortality when compared to the total number of insects infested. […]
Quantity kind: Percent Mortality (%)
Write the number in % without appending the unit.

> print(dat)
                                   compound      quantity.kind  recorded.measurement
1  O=C([O-])CCCCC(=O)O.OC1(C(c2ccc(OC(F)(F)F)cc2)c2ccc(OC(F)(F)F)cc2)CC[N+](O)(Cc2ccc(Oc3ccccn3)cc2)CC1 (stereo not drawn)  Percent Mortality                   100
2  [O-][N+]1(Cc2ccc(OCC3CC3)cc2)CCC(O)(C(c2ccc(C(F)(F)F)cc2)c2ccc(C(F)(F)F)cc2)CC1 (stereo not drawn)  Percent Mortality                   100
3  [N-]=[N+]=NCC1(C(c2ccc(C(F)(F)F)cc2)c2ccc(C(F)(F)F)cc2)CC[N+]([O-])(Cc2ccc(OCC3CC3)cc2)CC1 (stereo not drawn)  Percent Mortality                    50
4  O=C([O-])C1CCCCC1.OC1(C(c2ccc(OC(F)(F)F)cc2)c2ccc(OC(F)(F)F)cc2)CC[N+](O)(Cc2ccc(Oc3ccccn3)cc2)CC1 (stereo not drawn)  Percent Mortality                   100
5  CCCOc1ccc(C[N+]2([O-])CCC(O)(C(O)(c3ccc(OC(F)(F)F)cc3)c3ccc(OC(F)(F)F)cc3)CC2)cc1 (stereo not drawn)  Percent Mortality                   100

Ask: Hello, please tell me recorded Percent Mortality for this one: `COc1ccc(Oc2ccc(CN3CCC(O)(C(c4ccc(OC(F)(F)F)cc4)c4ccc(OC(F)(F)F)cc4)CC3)cc2)nn1`
Result: 100

====

Quick reference for Percent Mortality among some molecules
Test system: tobacco budworm (Heliothis virescens [Fabricius])
Protocol notes: surface-treated diet test, insecticidal activity against tobacco budworm
Type: in vivo
Assay conditions: 0.25 millimoles of candidate insecticide on the surface of the diet; second instar larvae; five-day exposure; compared to total number of insects infested
Experimental: Candidate insecticides were evaluated for activity against the tobacco budworm (Heliothis virescens [Fabricius]) in a surface-treated diet test. […] After the five-day exposure period insecticidal activity for each rate of application of candidate insecticide was assessed as percent inhibition of insect weight relative to the weight of insects from untreated controls, and percent mortality when compared to the total number of insects infested. […]
Write the number in % without appending the unit.

> print(dat)
                                   molecule                             target.system      quantity.kind  recorded.measurement
1  OC1(C(c2ccc(OC(F)(F)F)cc2)c2ccc(OC(F)(F)F)cc2)CC[N+](O)(Cc2ccc(Oc3ccccn3)cc2)CC1.[Cl-] (stereo not shown)  tobacco budworm (Heliothis virescens [Fabricius])  Percent Mortality                   100

Ask: Hello, please tell me recorded Percent Mortality for this one: [O-][N+]1(Cc2ccc(Oc3ccccn3)cc2)CCC(O)(C(c2ccc(OC(F)(F)F)cc2)c2ccc(C(F)(F)F)cc2)CC1 (stereo not shown)
Result: 100

Ask: Hello, please tell me recorded Percent Mortality for this one: CC(C)=CCCC(C)=CCON=Cc1ccc(C(c2ccc(OC(F)(F)F)cc2)C2(O)CCN(Cc3ccc(Oc4ccccn4)cc3)CC2)cc1 (racemic)
Result: 17

Ask: Hello, please tell me recorded Percent Mortality for this one: [O-][N+]1(Cc2ccc(Oc3ncccn3)cc2)CCC(O)(C(c2ccc(C(F)(F)F)cc2)c2ccc(C(F)(F)F)cc2)CC1 (stereo not shown)
Result: 100

Ask: Hello, please tell me recorded Percent Mortality for this one: `O=C(NC1CCCCC1)Oc1ccc(CN2CCC(O)(C(c3ccc(OC(F)(F)F)cc3)c3ccc(OC(F)(F)F)cc3)CC2)cc1`
Result: 67

Ask: Hello, please tell me recorded Percent Mortality for this one: Cc1cc(C(c2ccc(OC(F)(F)F)cc2)C2(O)CC[N+]([O-])(Cc3ccc(Oc4ccccn4)cc3)CC2)ccc1Cl (stereo not shown)
Result: 100

Ask: Hello, please tell me recorded Percent Mortality for this one: `CON=C(Cl)c1ccc(CN2CCC(O)(C(c3ccc(OC(F)(F)F)cc3)c3ccc(OC(F)(F)F)cc3)CC2)cc1`
Result: 100

====

System: tobacco budworm (Heliothis virescens [Fabricius])
Protocol notes: surface-treated diet test, insecticidal activity against tobacco budworm
Type: in vivo
Assay conditions: 0.25 millimoles of candidate insecticide on the surface of the diet; second instar larvae; five-day exposure; compared to total number of insects infested
Quantity kind: Percent Mortality (%)
Write the number in % without appending the unit.

Guide cases for Percent Mortality, answers given:
> print(dat)
                                   compound      quantity.kind  value.units  recorded.measurement
1  CC(C)(C)NC(=O)Oc1ccc(CN2CCC(O)(C(c3ccc(OC(F)(F)F)cc3)c3ccc(OC(F)(F)F)cc3)CC2)cc1  Percent Mortality            %                   100
2  [O-][N+]1(Cc2ccc(C=NOCCF)cc2)CCC(O)(C(c2ccc(OC(F)(F)F)cc2)c2ccc(OC(F)(F)F)cc2)CC1 (stereo not drawn)  Percent Mortality            %                   100

Ask: Hello, please tell me recorded Percent Mortality for this one: O=S(=O)([O-])CCCO.OC1(C(c2ccc(OC(F)(F)F)cc2)c2ccc(OC(F)(F)F)cc2)CC[N+](O)(Cc2ccc(Oc3ccccn3)cc2)CC1 (stereo not drawn)
Result: 100
